system: PA-1; assay: Primary qHTS to identify gynecologic anti-cancer compounds using libraries of approved drugs and bioactive compounds (AID 1345084); conditions: Gynecologic cancer cell panel viability, ATPlite luminescence, 48 h; series mostly up to 57.5 µM; note: % is set by controls: 0 for no effect and ±100 for the full control effect; nearly all actives have a fitted effect of over 55% in size
Records with an inconclusive call do not appear. Activity calls are given as the source filed them. Calls come from the whole dose curve; as a rule, active = well fitted cell-killing curve with a large enough effect; inconclusive = small, poorly fitted or top-dose-only effect, or effect the other way; inactive = flat fitted curve, though single readings scatter.
reported.endpoint: activity change, negative = cytotoxicity

Worked set:
# molecule, activity change, negative = cytotoxicity
measured = [
    ("Cc1cc(OCCN2CCOCC2)nn1-c1ccc2ccccc2c1", "inactive"),
    ("CC1(C)CC[C@]2(C(=O)O[C@@H]3O[C@H](CO)[C@@H](O)[C@H](O)[C@H]3O)CC[C@]3(C)C(=CCC4[C@@]5(C)C[C@H](O)[C@H](O[C@@H]6O[C@H](C(=O)O)[C@@H](O)[C@H](O)[C@H]6O)[C@@](C)(CO)C5CC[C@]43C)C2C1 (stereo partly specified)", "1.64% [at 6.55 µM] (inactive)"),
    ("COc1ccc(C2C(C(=O)O)C(C(=O)O)C2c2ccc(OC)cc2O[C@@H]2O[C@H](CO)[C@@H](O)[C@H](O)[C@H]2O)c(O[C@@H]2O[C@H](CO)[C@@H](O)[C@H](O)[C@H]2O)c1 (stereo partly specified)", "inactive"),
    ("CC[C@H]1OC(=O)[C@H](C)C(=O)[C@H](C)[C@@H](OC2O[C@H](C)C[C@H](N(C)C)[C@H]2O)[C@@H](C)C[C@@H](C)C(=O)/C=C/[C@]1(C)O (stereo partly specified)", "inactive"),
    ("CC12CC34CC(O)C5C(CO)(CO)CC(=O)CC5(C)C3CC1C2C4 (stereo unspecified)", "inactive"),
]

Let us move to another entry and its activity change, negative = cytotoxicity.
Identify the reported activity change, negative = cytotoxicity for the following entry. C[C@@]1(O)[C@H](O)[C@@H](CO)O[C@H]1n1cnc2c(=O)[nH]c(N)nc21
inactive
